# Test system: L6-myotubes
# test.name: Glucose uptake (3H-2-deoxy-glucose) in differentiated L6-myotubes
# Type: cell-based
# stated.conditions: agonist final concentration 1×10^−5, 50 nM 3H-2-deoxy-glucose, relative to isoproterenol, read-out: Biological example 1 (glucose uptake, activity compared to that of isoproterenol)
Structures can show the parent of a compound that is named as a salt.
Could you please report measured Emax for the items listed next?

Example cases with answers are listed next.
# molecule, parameter.measured, experimental.value
rows = [
    ("CCCCNC[C@H](O)c1cnc(N)s1 [Example 9, dihydrochloride]", "Emax", "25 to 50%"),
    ("CCCCNC[C@H](O)c1csc(C(F)(F)F)n1 [Example 2, hydrochloride]", "Emax", "25 to 50%"),
    ("CCCCNCC(O)c1ccc(=O)[nH]c1 (stereo not shown) [Example 3]", "Emax", "25 to 50%"),
    ("CC(C)(C)NCC(O)c1ccncc1O (stereo not shown) [Example 14, hydrochloride]", "Emax", "> 75%"),
    ("CC(C)(C)NC[C@H](O)c1cncc(F)c1 [Example 17]", "Emax", "> 75%"),
]

Would you be so kind as to report Emax for each listed record?
1. CCCCNC[C@H](O)c1cnc(N)nc1 [Example 11]
2. CC(C)(C)NC[C@H](O)c1ccc(F)cn1 [Example 16]
3. CCCCNCC(O)c1cccnc1 (stereo not shown) [Example 7]
4. CC(C)(C)NC[C@H](O)c1ccncc1F [Example 18]

1. 50 to 75%
2. 50 to 75%
3. 50 to 75%
4. 25 to 50%

Item: CC(C)(C)NC[C@H](O)c1ccc(Cl)cn1 [Example 21, dihydrochloride] | Emax: 25 to 50%
